B1: tRNA (parent)
chain: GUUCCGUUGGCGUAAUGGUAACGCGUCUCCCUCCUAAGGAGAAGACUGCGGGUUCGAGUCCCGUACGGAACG

Variants of: B1
Test: yeast fitness, log relative to wild type (ln ratio); higher = fitter; tRNA-Arg(CCU), competitive growth, 37 C, 1 M NaCl
reportedMetric: yeast fitness (ln)
Just the number, please, no unit attached.

// known answers, use as guide
{"mutantCode": "G1A U2C G6A C27U A43C C46U A70G", "observed": 0.0488}
{"mutantCode": "G1A U2G G6U A43C C46U C66A C71U", "observed": -0.234}
{"mutantCode": "G6A C27U A43C C66U A70U C71U", "observed": -0.441}

// query Look up yeast fitness (ln) of U2G G6A C46U A70G C71U and report it.
// result -0.144

// query Output measured yeast fitness (ln) for this item: G1A U2G G6A C46U C71U
// result -0.247

// query Name the recorded yeast fitness (ln) of the item U2G G6U A43C C46U A69G A70G in your answer.
// result -0.183

// query Find the measured yeast fitness (ln) of G1A C27U C66U A70G and report it.
// result -0.176

// query Give the reported yeast fitness (ln) for this variant. G1A C71U
// result -0.0163

// query Entry G6U C27U A43C C66A A69G A70G C71U needs its yeast fitness (ln) filled in; supply it.
// result -0.338

// query Look up and report measured yeast fitness (ln) for this entry: G1A C27U C66U A70U
// result -0.152

// query // Input: G1A U2G G6U C27U C46U C66U A69G A70U C71U . Output its yeast fitness (ln) only.
// result -0.462
